- METHOD: Selectivity index, ratio of CC50 for HMEC1 to IC50 for chloroquine-sensitive Plasmodium falciparum 3D7
- Format: functional
Kindly state Ratio CC50/IC50 for each of the entries shown.
Please reply with the number alone, leaving off any unit.

Request: // lookup Ratio CC50/IC50 for "CN1CCN(CCNc2nc3ccc(Cl)cc3c3c2C(=O)c2ccccc2-3)CC1"
Result: 1.9

Request: Thanks! And "O/N=C1\c2ccccc2-c2c1c(NCCN1CCCCC1)nc1ccc(Cl)cc21" ?
Result: 3.7

Request: Thanks! And "CN1CCN(CCNc2nc3ccc(Cl)cc3c3c2/C(=N/O)c2ccccc2-3)CC1" ?
Result: 3.2

Request: Thanks! And "O/N=C1\c2ccccc2-c2c1c(NCCN1CCCCC1)nc1cc(Cl)ccc21" ?
Result: 4.4

* * *

- Tested on: Plasmodium falciparum
- METHOD: Antimalarial activity against Plasmodium falciparum K1
- Assay type: functional, organism-based
PROPERTY: IC50 (nM)
Give just the number in nM; leave the unit off.

Request: // lookup IC50 for "Clc1ccc(/C(=C\[C@@H]2CCCN3CCCC[C@H]23)c2ccccc2)cc1Cl"
Result: 400

* * *

- METHOD: Cytotoxicity against HMEC1 assessed as cell growth inhibition after 72 hrs by MTT assay
- Design: species or system HMEC-1
- EXPERIMENTAL_CONDITIONS: human, HMEC1 cells
PROPERTY: CC50 at 72 h (µM)
Give just the number in µM; leave the unit off.

Request: // lookup CC50 at 72 h for "CN1CCN(c2nc3ccc(Cl)cc3c3c2C(=O)c2ccccc2-3)CC1"
Result: 4.03

Request: Thanks! And "COc1nc2ccc(Cl)cc2c2c1/C(=N/NC(=N)N)c1ccccc1-2" ?
Result: 1.72

Request: Thanks! And "CN1CCN(CCNc2nc3ccc(Cl)cc3c3c2/C(=N/O)c2ccccc2-3)CC1" ?
Result: 2.58

Request: Thanks! And "O/N=C1\c2ccccc2-c2c1c(NCCN1CCCCC1)nc1ccc(Cl)cc21" ?
Result: 3.12

Request: Thanks! And "COc1nc2ccc(Cl)cc2c2c1/C(=N/N1CCN(C)CC1)c1ccccc1-2" ?
Result: 5.28

Request: Thanks! And "O/N=C1\c2ccccc2-c2c1c(NCCN1CCCCC1)nc1cc(Cl)ccc21" ?
Result: 2.34

Request: Thanks! And "CN1CCN(CCNc2nc3cc(Cl)ccc3c3c2/C(=N/O)c2ccccc2-3)CC1" ?
Result: 2.94

Request: Thanks! And "CN1CCN(CCNc2nc3ccc(Cl)cc3c3c2C(=O)c2ccccc2-3)CC1" ?
Result: 1.94

Request: Thanks! And "CN1CCN(CCNc2nc3cc(Cl)ccc3c3c2C(=O)c2ccccc2-3)CC1" ?
Result: 3.12

* * *

Kindly state CC50 at 72 h for each of the entries shown.
- METHOD: Cytotoxicity against HMEC1 assessed as cell growth inhibition after 72 hrs by MTT assay
- Design: species or system HMEC-1
- EXPERIMENTAL_CONDITIONS: human, HMEC1 cells

Request: // lookup CC50 at 72 h for "CCC(=O)O/N=C1\c2ccccc2-c2c1c(N1CCN(c3ccccn3)CC1)nc1ccc(Cl)cc21"
Result: > 35 µM

Request: Thanks! And "O/N=C1\c2ccccc2-c2c1c(N1CCN(c3ccccn3)CC1)nc1ccc(Cl)cc21" ?
Result: > 38 µM

Request: Thanks! And CCN(CC)CCCC(C)Nc1ccnc2cc(Cl)ccc12 (stereo not drawn) [CHLOROQUINE] ?
Result: > 38 µM
